Ref: the supplement of paper PMC9170038

- Tested on: MS2 coat protein
- Procedure details: apparent KD of MS2 coat protein; designed switch direction (-1 OFF switch, 1 ON switch): 1; higher = weaker reporter binding
- Setup conditions: Eterna round: R95; input ligand: FMN 200 uM
Is apparent KD of MS2 coat protein at least 0.03 µM? Then class 1. If not, class 0.

{"columns": ["Input sequence", "Assay system", "Qualitative label"],
 "data": [
  ["AUUAAACAUGAGGAUCACCCAUGUAUUAUUAUGGGAGGAUAUGCGAAUUUAAUUAAUUAAGCAGAAGGCCUAAUUA [Mat - Same State 1 - D102] (puzzle: Same State 1)", "MS2 coat protein", "class 0"],
  ["AGUCCUGAAAAGAAAAUAAAGAGAGAUGUACAUGAGGAUCACCCAUGUCAUGUACAAGUUCUAUGCUCGUCAUAUAA [Sensorship 23 - Jieux - Sensor for hsa-mir-208a] (puzzle: Sensor for hsa-mir-208a)", "MS2 coat protein", "class 1"],
  ["AGUCCUGAAAGGAAAAUUAUAAGUGAUGUACAUGAGGAUCACCCAUGUCAUGUACAAGUUCUAUGCUCGUCUUAUAA [Sensorship 25 - Jieux - Sensor for hsa-mir-208a] (puzzle: Sensor for hsa-mir-208a)", "MS2 coat protein", "class 1"],
  ["UUAUAACAUGAGGAUCACCCAUGUCAACAAAGUCGAGGAUAUGGGCAAGAAUUGAGAGAACCAGAAGGCGAAUAUU [Mat - Same State 1 - Mod of UCT - D31] (puzzle: Same State 1)", "MS2 coat protein", "class 1"],
  ["GUAAGUUUGAUGCUCGUCUCUCCGUACAAACAUGAGGAUCACCCAUGUGGUCGGGAAGUAGCCCGGCCAGUAUGGCC [Rerire] (puzzle: Sensor for hsa-mir-208a)", "MS2 coat protein", "class 0"],
  ["GGAGCCAGCACCGAGGAUAUUCAUAUUAAAACAUGAGGAUCACCCAUGUAGGCCAGAAGGCCUUGGGAGAAGGCGGAUUGGCUCG [Xeonanis - 10] (puzzle: Same State 2)", "MS2 coat protein", "class 1"],
  ["UACAAUCUAUCUGAGGAUAUCAUGAAAUAAACAUGAGGAUCACCCAUGUGCAGGAAAACUGCAUAUGAGAAGGCAGAUAGAUUGA [salish99_ss2_r3_018] (puzzle: Same State 2)", "MS2 coat protein", "class 1"],
  ["GGUCCAGCCUGAGCUGGACAAAAGCAUGUACAUGAGGAUCACCCAUGUUCAUGUACAAGCUUUUUGCUCGUCUUAGA [salish99_208a_r3_068] (puzzle: Sensor for hsa-mir-208a)", "MS2 coat protein", "class 1"]
]}

----------
- Test system: MS2 coat protein
- Procedure details: apparent KD of MS2 coat protein; designed switch direction (-1 OFF switch, 1 ON switch): -1; higher = weaker reporter binding
- Setup conditions: input ligand: none
Is apparent KD of MS2 coat protein at least 40 nM? Then Condition met. If not, Condition not met.

{"columns": ["Input sequence", "Qualitative label"],
 "data": [
  ["GUCAGCUCGUCAGGAUAUAUUAACAUGAGGAUCACCCAUGUAAGAUCAGGCUUCGGCCAAUGUUAAUAGAAGGGACGAGCUGAC [ENG2/12-B1] (Eterna round: R96, puzzle: Exclusion NG 2)", "Condition met"],
  ["CCGAAACAUGAGGAUCACCCAUGUGAGGAUAUGAGCGUCUAGUUGAGAGAUUGGACGCUCAGAAGGCACAAAGG [JR_Ex1_Sub074] (Eterna round: R97, puzzle: Exclusion 1)", "Condition not met"],
  ["GCAGCGUAUGUAGGAUAUCGGUCAGUUUCUGAUCGAGAAGGACAUGAGGAUCACCCAUGUAAAUUACCGUCUUUGACGGGCUGC [JL ENG1 3.68] (Eterna round: R96, puzzle: Exclusion NG 1)", "Condition not met"],
  ["AGUCCUAGUCAAGGAUAUACACCGAAGAAAUACGUAGAAGGUGACAUGAGGAUCACCCAUGUAGGGCCUCUGGAAACAGAGGAA [Indiinbi] (Eterna round: R96, puzzle: Exclusion NG 1)", "Condition met"],
  ["UUAUUAGCAGGAUAUAUCCGGGAUCACAUGAGGAUCACCCAUGUGACCGCUUGAGAUUCUAUAGAAGGGCUUUAUU [Mod of ViennaUCT 32 - Jieux - Exclusion 5] (Eterna round: R97, puzzle: Exclusion 5)", "Condition not met"]
]}
